These measurements were taken from paper PMC5416816.

- test_system: T1, TIA-1 RRM23K (UniProt P31483-2 93-274)
- T1 sequence: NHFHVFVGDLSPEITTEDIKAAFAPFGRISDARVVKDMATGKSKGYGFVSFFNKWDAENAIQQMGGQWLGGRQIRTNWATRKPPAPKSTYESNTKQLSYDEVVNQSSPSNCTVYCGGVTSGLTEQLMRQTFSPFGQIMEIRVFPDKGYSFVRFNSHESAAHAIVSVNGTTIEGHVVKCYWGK
- assay_text: fluorescence anisotropy
pKd: −log10 of the molar value.
// reported pKd per item
measured_property: pKd

> print(dat)
                             binder  recorded.measurement
1  UUUUUACUCC (ssRNA) [UC-rich RNA]                  8.30
2  TTTTTACTCC (ssDNA) [TC-rich DNA]                  8.10
3  ACTCCTTTTT (ssDNA) [CT-rich DNA]                  7.52
4  ACUCCUUUUU (ssRNA) [CU-rich RNA]                  6.89
